study_system: human GHS-R 1a (Homo sapiens, UniProt Q92847)
Sequence (Q92847 whole entry): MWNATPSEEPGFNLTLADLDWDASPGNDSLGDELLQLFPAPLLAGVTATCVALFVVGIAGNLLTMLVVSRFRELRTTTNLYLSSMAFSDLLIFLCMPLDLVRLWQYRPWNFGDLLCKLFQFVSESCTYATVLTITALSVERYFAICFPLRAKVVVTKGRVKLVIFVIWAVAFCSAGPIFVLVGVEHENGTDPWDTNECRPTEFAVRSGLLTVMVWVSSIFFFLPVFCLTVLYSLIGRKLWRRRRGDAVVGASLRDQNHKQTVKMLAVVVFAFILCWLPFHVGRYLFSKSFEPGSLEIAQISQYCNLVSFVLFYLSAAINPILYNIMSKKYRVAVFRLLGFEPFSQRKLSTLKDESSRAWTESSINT
test_description: GHS-R 1a receptor-ligand binding assay (membrane preparations from transfected LLC PK-1 cells)
measurement_conditions: displacement of 125I-His9-ghrelin; plasma membranes of LLC PK-1 cells transiently transfected with human GHS-R 1a; mean of at least two independent experiments in triplicates
pIC50: −log10 of the molar value.
recorded_endpoint: pIC50

molecule	quantitative_readout
COc1ccc(Cn2c(CCc3ccccc3)nnc2[C@@H](Cc2cccc3ccccc23)NC(=O)C(C)(C)N)cc1 [Compound 77]	7.91
O=C(N[C@H](Cc1c[nH]c2ccccc12)c1nnc(CCCc2c[nH]c3ccccc23)n1Cc1cccc2ccccc12)C1CCNCC1 [Compound 39]	7.68
COc1ccc(Cn2c(CCc3ccccc3)nnc2[C@@H](Cc2c[nH]c3ccccc23)NC(=O)c2ccn[nH]2)c(OC)c1 [Compound 8]	6.46
O=C(Cc1ccccn1)N[C@H](Cc1c[nH]c2ccccc12)c1nnc(CCCc2c[nH]c3ccccc23)n1Cc1cccc2ccccc12 [Compound 40]	7.68
